FYI, the data here is from PubChem BioAssay (NCATS).

Test: qHTS profiling for inhibitors of Plasmodium falciparum proliferation (AID 504749);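 further: 0% = DMSO vehicle and full inhibition = artemisinin control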
Conditions: P. falciparum in erythrocytes, SYBR Green DNA, 72 h; at 12.8 µM (top of the series); parasite line A
Results filed as inconclusive are left out.
measured_parameter: activity, negative = inhibition (%)
Numbers only, in %.

Completed entries (count: 5):
| item_smiles | activity, negative = inhibition [%] |
| --- | --- |
| CCCOc1cc(N)ccc1C(=O)OCCN(CC)CC | -3.32 |
| O=C1NCCN1c1ncc([N+](=O)[O-])s1 | -20 |
| O=C(O)CCC(=O)c1ccc(-c2ccccc2)cc1 | -3.71 |
| CN1C(=O)OC(C)(C)C1=O | -13.9 |
| CC(=O)Oc1cc(C(F)(F)F)ccc1C(=O)O | 7.13 |

Required: activity, negative = inhibition, one value per compound below.
1. CN1CCc2c(c3ccccc3n2Cc2ccccc2)C1
2. CCSc1ccc2c(c1)N(CCCN1CCN(C)CC1)c1ccccc1S2

-0.349
14.2
